The values you see were collected from paper PMC10778704.

- Procedure details: circular dichroism
- Details: 10 mM Na phosphate; pH 7.4; 25 °C; 100 uM
Bridge positions count the residues as written; N and C are the ends. Square brackets hold non-standard residues; d marks the D form. Peptide text beside a SMILES is read from it. S5 = C=CCCC[C@](C)(N)C(=O)O

Compound: CC(=O)N[C@@H](CC(=O)O)C(=O)N[C@@H](CCCCN)C(=O)N[C@@]1(C)CCC/C=C/CCC[C@@](C)(C(=O)N[C@@H](CCC(=O)O)C(=O)N[C@@H](CC(=O)O)C(N)=O)NC(=O)[C@H](CCC(=O)O)NC(=O)[C@H](Cc2c[nH]cn2)NC(=O)[C@H](CC(N)=O)NC1=O (Ac-DK[S5]NHE[S5]ED-NH2; staple (E) 3-7)
helicity (%): 4.7
//
Compound: CC(=O)N[C@@H](Cc1c[nH]cn1)C(=O)N[C@@H](CCC(=O)O)C(=O)N[C@@]1(C)CCC/C=C/CCC[C@@](C)(C(=O)N[C@@H](Cc2ccc(O)cc2)C(=O)N[C@@H](CCC(N)=O)C(N)=O)NC(=O)[C@H](CC(C)C)NC(=O)[C@H](CC(=O)O)NC(=O)[C@H](CCC(=O)O)NC1=O [peptide 11] (Ac-HE[S5]EDL[S5]YQ-NH2; staple (E) 3-7)
helicity (%): 53.5
//
Compound: CC(=O)N[C@@H](Cc1c[nH]cn1)C(=O)N[C@@H](CCC(=O)O)C(=O)N[C@H]1CCCCNC(=O)CC[C@@H](C(=O)N[C@@H](Cc2ccc(O)cc2)C(=O)N[C@@H](CCC(N)=O)C(N)=O)NC(=O)[C@H](CC(C)C)NC(=O)[C@H](CC(=O)O)NC(=O)[C@H](CCC(=O)O)NC1=O (Ac-HEKEDLEYQ-NH2; lactam 3-7)
helicity (%): 4.6
